Target: LAT1 (Homo sapiens)
Construct: Using human bladder cancer cell strain T24 cells, in which LAT1 only was strongly expressed; endogenous in cells
Assay: LAT1 inhibiting activity: inhibition of 14C-L-leucine uptake in T24 cells
Details: 1 μM 14C-Leu, 1-minute uptake
Method: 1) To each of the weighed test compounds, DMSO was added to prepare a 100 mM solution or suspension as a DMSO stock. In an assay, the stock was diluted 1,000 fold with a buffer described below. […] 2) The LAT1 inhibiting activity of the test compound was determined in the following manner. Using human bladder cancer cell strain T24 cells, in which LAT1 only was strongly expressed, inhibiting activity of each test compound against “^14C”-L-leucine uptake was determined as the LAT1 inhibiting activity. […]
measureName: IC50 (nM)
One number for each entry, in nM.

Answered examples (3):
| compound | u | IC50 |
| --- | --- | --- |
| N[C@@H](Cc1cccc(OCc2ccc3ccccc3c2)c1)C(=O)O [Example 58, 3-[(2-naphthyl)methoxy]-L-phenylalanine] | nM | 490 |
| CN(CCO)c1ncc(-c2nc3cccc(COc4c(Cl)cc(C[C@H](N)C(=O)O)cc4Cl)c3o2)cn1 | nM | 360 |
| CN(C)c1ncc(-c2cccc(Oc3cccc(C[C@H](N)C(=O)O)c3)c2)cn1 | nM | 670 |

Please look at the following compound next.
Record CN(C)c1ncc(-c2nc3cccc(COc4c(Cl)cc(C[C@H](N)C(=O)O)cc4Cl)c3o2)cn1 . Reported IC50: 290

---

Target: LAT1 (Homo sapiens, UniProt Q01650)
Construct: Using human bladder cancer cell strain T24 cells, in which LAT1 only was strongly expressed; endogenous in cells
Sequence (Q01650 whole entry): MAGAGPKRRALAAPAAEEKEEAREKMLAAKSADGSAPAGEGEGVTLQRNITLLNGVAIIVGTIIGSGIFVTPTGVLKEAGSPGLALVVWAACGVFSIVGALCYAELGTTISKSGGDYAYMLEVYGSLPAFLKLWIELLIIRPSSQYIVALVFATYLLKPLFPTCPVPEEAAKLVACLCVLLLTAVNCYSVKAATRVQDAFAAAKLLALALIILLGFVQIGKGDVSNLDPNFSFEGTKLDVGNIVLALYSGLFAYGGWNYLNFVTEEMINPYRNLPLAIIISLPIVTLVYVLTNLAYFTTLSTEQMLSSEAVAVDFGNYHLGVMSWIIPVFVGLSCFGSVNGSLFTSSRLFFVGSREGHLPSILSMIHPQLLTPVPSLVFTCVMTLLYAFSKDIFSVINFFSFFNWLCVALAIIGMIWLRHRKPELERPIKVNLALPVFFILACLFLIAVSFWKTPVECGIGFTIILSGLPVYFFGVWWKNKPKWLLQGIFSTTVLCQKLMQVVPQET
Sequence (P08195 102-630 partner): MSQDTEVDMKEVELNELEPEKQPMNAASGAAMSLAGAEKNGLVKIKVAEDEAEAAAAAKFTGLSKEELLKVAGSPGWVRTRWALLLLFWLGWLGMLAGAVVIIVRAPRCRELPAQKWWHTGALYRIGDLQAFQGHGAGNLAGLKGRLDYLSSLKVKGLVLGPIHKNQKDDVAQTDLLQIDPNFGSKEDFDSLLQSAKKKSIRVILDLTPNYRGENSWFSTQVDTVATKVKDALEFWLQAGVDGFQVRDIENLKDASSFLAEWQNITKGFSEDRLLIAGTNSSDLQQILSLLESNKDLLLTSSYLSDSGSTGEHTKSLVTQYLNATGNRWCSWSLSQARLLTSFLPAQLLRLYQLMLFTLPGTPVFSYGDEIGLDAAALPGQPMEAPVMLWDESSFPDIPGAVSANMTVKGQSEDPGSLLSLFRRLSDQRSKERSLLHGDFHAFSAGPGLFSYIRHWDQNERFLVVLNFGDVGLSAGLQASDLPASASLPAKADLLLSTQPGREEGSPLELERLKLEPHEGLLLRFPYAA
Assay: LAT1 inhibiting activity: inhibition of 14C-L-leucine uptake in T24 cells
Conditions: 1 μM 14C-Leu, 1-minute uptake
Experimental: 1) To each of the weighed test compounds, DMSO was added to prepare a 100 mM solution or suspension as a DMSO stock. In an assay, the stock was diluted 1,000 fold with a buffer described below. […] 2) The LAT1 inhibiting activity of the test compound was determined in the following manner. Using human bladder cancer cell strain T24 cells, in which LAT1 only was strongly expressed, inhibiting activity of each test compound against “^14C”-L-leucine uptake was determined as the LAT1 inhibiting activity. […]
measureName: pIC50
Give bare numbers, as −log10 of the molar value.

Answered examples (2):
| compound | recordedValue |
| --- | --- |
| CN(C)c1ccc(-c2cccc(Oc3cccc(C[C@H](N)C(=O)O)c3)c2)cn1 [Example 98] | 6.70 |
| NC(Cc1cc(Cl)c(OCc2cccc3c2OC(c2ccccc2)CN3)c(Cl)c1)C(=O)O (centres unmarked) | 6.43 |

// each compound listed below needs its pIC50
1. COc1ccc2cc(Oc3cccc(C[C@H](N)C(=O)O)c3)ccc2c1
2. Nc1c(-c2ccccc2)oc2c(COc3c(Cl)cc(C[C@H](N)C(=O)O)cc3Cl)cccc2c1=O
3. Cc1ccc(-c2nc3cccc(COc4c(Cl)cc(C[C@H](N)C(=O)O)cc4Cl)c3o2)cc1
4. N[C@@H](Cc1cccc(Oc2cccc3ccccc23)c1)C(=O)O
5. CN(C)c1ccc(-c2nc3cccc(COc4c(Cl)cc(C[C@H](N)C(=O)O)cc4Cl)c3o2)cn1
6. N[C@@H](Cc1cc(Cl)c(OCc2cccc3nc(-c4ccccc4)[nH]c23)c(Cl)c1)C(=O)O

Result:
1. 6.54
2. 6.26
3. 6.70
4. 6.15
5. 6.48
6. 6.57
